Assay: Compound was tested for cytotoxicity against HSV-2 (herpes simplex type-2) of HFF (human foreskin fibroblasts) cells
Format: cell-based
Settings: HFF (human foreskin fibroblast) cells
Measured Property: CC50

Measured CC50 of Cc1cn([C@H]2C[C@H](O)[C@@]3(O)CC23)c(=O)[nH]c1=O (stereo partly specified) : > 20 µg/mL

###

Assay: Compound was tested for cytotoxicity against HSV-2 (herpes simplex type-2) of HFF (human foreskin fibroblasts) cells in different experiment
Settings: human alphaherpesvirus 2, HFF (human foreskin fibroblast) cells
Measured Property: CC50

According to the records, this molecule Cc1cn([C@@]23CC2[C@H](O)[C@@H](O)C3)c(=O)[nH]c1=O (stereo partly specified) displays CC50 of > 20 µg/mL

###

Assay: Compound was tested for cytotoxicity against HSV-1 (herpes simplex type-1) of HFF (human foreskin fibroblasts) cells by cytopathogenic effect (CPE) inhibition assay
Assay type: cell-based
Conditions: HFF (human foreskin fibroblast) cells
In this section we review reported CC50 values for a set of compounds.

Compound	Result
Nc1ccn([C@H]2C[C@H](O)[C@@]3(O)CC23)c(=O)n1 (stereo not given in full)	68 µg/mL

Entry O=c1ccn([C@H]2C[C@H](O)[C@@]3(O)CC23)c(=O)[nH]1 (stereo not given in full) , CC50 reported as > 100 µg/mL

Briefly, CC50 measured for Cc1cn([C@H]2C[C@H](O)[C@@]3(O)CC23)c(=O)[nH]c1=O (stereo not given in full) : > 100 µg/mL

// CC50 lookup, compound = Nc1nc(O)c2ncn([C@H]3C[C@H](O)[C@@]4(O)CC34)c2n1 (stereo not given in full) , result: > 100 µg/mL

Entry Nc1ncnc2c1ncn2[C@H]1C[C@H](O)[C@@]2(O)CC12 (stereo not given in full) , CC50 reported as > 100 µg/mL

###

Assay: Compound was tested for cytotoxicity against HCMV (human cytomegalovirus) of HFF(human foreskin fibroblasts) cells by cytopathogenic effect (CPE) inhibition assay
Type: cell-based
Settings: HFF (human foreskin fibroblast) cells
Overview of reported CC50 across a group of compounds:

Recorded results for 3 compounds are shown here.
Compound	Result
Cc1cn([C@H]2C[C@H](O)[C@@]3(O)CC23)c(=O)[nH]c1=O (stereo not given in full)	63.7 µg/mL
Nc1nc(O)c2ncn([C@H]3C[C@H](O)[C@@]4(O)CC34)c2n1 (stereo not given in full)	64.3 µg/mL
Nc1ncnc2c1ncn2[C@H]1C[C@H](O)[C@@]2(O)CC12 (stereo not given in full)	> 100 µg/mL

# CC50 of Nc1ccn([C@H]2C[C@H](O)[C@@]3(O)CC23)c(=O)n1 (stereo not given in full) = 8.8 µg/mL

Measured CC50, O=c1ccn([C@H]2C[C@H](O)[C@@]3(O)CC23)c(=O)[nH]1 (stereo not given in full) : > 100 µg/mL

###

Test: Compound was tested for cytotoxicity against HSV-2 (herpes simplex type-2) of HFF (human foreskin fibroblasts) cells
Details: human alphaherpesvirus 2, HFF (human foreskin fibroblast) cells
Measured Property: CC50

The compound listed as Cc1cn([C@@]23CC2[C@H](O)[C@@H](O)C3)c(=O)[nH]c1=O (stereo partly specified) has a reported CC50 of > 50 µg/mL
